assay: in vitro; details: human
The following molecules are listed with their measured CC50 values.

Query smiles	CC50
CC[C@H](C)[C@H](NC(=O)Cc1ccccc1)C(=O)N[C@@H](C)C(=O)NCC#N	> 400 µM
CC[C@H](C)[C@H](NC(=O)[C@@H](C)c1ccccc1)C(=O)N[C@@H](C)C(=O)NCC#N	> 400 µM

----------
molecular target: MPXV I7L protease (Monkeypox virus, UniProt Q8V512)
pIC50: −log10 of the molar value. Where a SMILES comes first, the peptide text is derived from it. The star is where a group is joined. NHCH2CN = N#CCN*
Below, each entry is listed alongside its reported pIC50.

Molecule	pIC50
CC(=O)N[C@@H](Cc1ccc(O)cc1)C(=O)N[C@@H](Cc1ccccc1)C(=O)N[C@@H](Cc1ccc(O)cc1)C(=O)N[C@@H](C)C(=O)NCC#N [compound 3] (Ac-YFYA-NHCH2CN)	7.10
CC[C@H](C)[C@H](NC(=O)[C@@H](NC(=O)[C@H](CCSC)NC(C)=O)C(C)C)C(=O)N[C@@H](C)C(=O)NCC#N [compound 2] (Ac-MVIA-NHCH2CN)	6.88
CC[C@H](C)[C@H](NC(=O)[C@@H](NC(C)=O)C(C)C)C(=O)N[C@@H](C)C(=O)NCC#N	6.40
CC[C@H](C)[C@H](NC(=O)[C@@H](C)c1ccccc1)C(=O)N[C@@H](C)C(=O)NCC#N	7.16
